Molecular target: rat sucrase (partially purified alpha-glucosidase from intestinal rat powder) (Rattus norvegicus, UniProt P23739)
Sequence (P23739 whole entry): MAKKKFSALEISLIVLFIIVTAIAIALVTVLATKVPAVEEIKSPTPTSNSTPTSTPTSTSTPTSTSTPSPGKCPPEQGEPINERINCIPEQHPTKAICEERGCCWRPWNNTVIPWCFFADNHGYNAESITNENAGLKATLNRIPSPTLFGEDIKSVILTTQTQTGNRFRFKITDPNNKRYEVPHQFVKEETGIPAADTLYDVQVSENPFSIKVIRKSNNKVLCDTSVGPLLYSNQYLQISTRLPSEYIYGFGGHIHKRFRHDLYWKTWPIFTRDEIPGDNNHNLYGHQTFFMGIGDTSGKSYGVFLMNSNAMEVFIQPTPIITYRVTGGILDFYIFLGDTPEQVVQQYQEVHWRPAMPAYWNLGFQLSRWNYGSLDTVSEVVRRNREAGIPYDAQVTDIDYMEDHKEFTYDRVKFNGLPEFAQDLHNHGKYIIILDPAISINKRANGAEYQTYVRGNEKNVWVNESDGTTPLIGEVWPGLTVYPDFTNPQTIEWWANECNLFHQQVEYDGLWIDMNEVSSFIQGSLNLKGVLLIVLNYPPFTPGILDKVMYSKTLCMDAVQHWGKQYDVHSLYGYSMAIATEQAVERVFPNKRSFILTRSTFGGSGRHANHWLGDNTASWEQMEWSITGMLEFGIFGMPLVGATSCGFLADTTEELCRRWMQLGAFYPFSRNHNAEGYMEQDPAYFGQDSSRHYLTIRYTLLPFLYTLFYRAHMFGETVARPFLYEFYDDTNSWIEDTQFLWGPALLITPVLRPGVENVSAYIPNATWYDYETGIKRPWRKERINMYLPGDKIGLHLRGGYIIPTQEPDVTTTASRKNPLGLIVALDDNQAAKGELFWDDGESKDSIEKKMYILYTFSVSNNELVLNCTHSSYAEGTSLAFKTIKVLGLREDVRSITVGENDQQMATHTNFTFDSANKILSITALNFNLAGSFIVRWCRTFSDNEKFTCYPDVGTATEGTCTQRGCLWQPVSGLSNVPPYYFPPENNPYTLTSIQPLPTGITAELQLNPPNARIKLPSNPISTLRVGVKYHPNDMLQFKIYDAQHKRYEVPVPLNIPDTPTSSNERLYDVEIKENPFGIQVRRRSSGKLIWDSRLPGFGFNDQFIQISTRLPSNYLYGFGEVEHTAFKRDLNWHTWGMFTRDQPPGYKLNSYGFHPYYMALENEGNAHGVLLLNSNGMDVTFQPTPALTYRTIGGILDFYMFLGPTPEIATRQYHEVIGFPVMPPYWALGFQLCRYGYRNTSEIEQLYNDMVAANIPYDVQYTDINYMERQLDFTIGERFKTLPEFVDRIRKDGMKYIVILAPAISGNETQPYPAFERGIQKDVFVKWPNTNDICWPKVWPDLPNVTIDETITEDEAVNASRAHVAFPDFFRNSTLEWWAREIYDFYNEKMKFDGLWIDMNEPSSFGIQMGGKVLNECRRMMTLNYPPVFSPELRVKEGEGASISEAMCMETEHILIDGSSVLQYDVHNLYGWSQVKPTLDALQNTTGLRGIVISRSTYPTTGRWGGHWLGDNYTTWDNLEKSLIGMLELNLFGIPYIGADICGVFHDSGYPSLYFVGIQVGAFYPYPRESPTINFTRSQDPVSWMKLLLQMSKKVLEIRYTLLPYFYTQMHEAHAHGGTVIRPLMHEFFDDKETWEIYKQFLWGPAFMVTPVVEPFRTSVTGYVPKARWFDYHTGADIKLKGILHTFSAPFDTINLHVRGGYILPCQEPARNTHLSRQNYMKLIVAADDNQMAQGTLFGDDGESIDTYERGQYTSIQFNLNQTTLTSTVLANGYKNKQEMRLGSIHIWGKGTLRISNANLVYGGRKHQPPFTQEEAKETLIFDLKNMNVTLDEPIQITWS
MEASUREMENT LABEL: IC50 (nM)
Numbers only; they are read as nM.

chem_smiles=[N-]=[N+]=Nc1ccc(NCCc2cc(Br)cc(CCN3C[C@H](O)[C@@H](O)[C@H](O)[C@H]3CO)c2)c([N+](=O)[O-])c1 measurement_label=IC50 value_unit=nM number=4140
chem_smiles=O=[N+]([O-])c1cc(CN2CCCO2)ccc1NCCc1ccc(CCN2C[C@H](O)[C@@H](O)[C@H](O)[C@H]2CO)cc1 measurement_label=IC50 value_unit=nM number=908

Please examine the following record next.
Exercise: Check the records and state IC50 for [N-]=[N+]=Nc1ccc(NCCS(=O)(=O)CCCN2C[C@H](O)[C@@H](O)[C@H](O)[C@H]2CO)c([N+](=O)[O-])c1
Solution: 738

Reference source: patent US20250197372A1
